target: factor D (Homo sapiens)
Construct: made in house; host or cells: E. coli
Sequence (P00746 26-253): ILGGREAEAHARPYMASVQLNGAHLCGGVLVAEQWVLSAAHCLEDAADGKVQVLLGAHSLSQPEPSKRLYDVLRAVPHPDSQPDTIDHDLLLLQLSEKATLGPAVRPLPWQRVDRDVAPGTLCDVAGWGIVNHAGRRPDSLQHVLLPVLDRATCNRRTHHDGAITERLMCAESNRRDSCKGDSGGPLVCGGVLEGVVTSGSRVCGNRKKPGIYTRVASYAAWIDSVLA
procedure_text: factor D inhibition assay of Biological Example 2
Type: biochemical
pIC50: −log10 of the molar value.
We use 8 as the dividing line for pIC50: on or above the line is true (1), below is false (0).

# compound_smiles, target, classification
data = [
    ("CC(=O)Nc1cc(C(=O)Nc2ccccc2CC(=O)O)cc(-c2cccc(CN)c2)c1", "factor D (Homo sapiens)", "false (0)"),
    ("C[C@@H](N)c1cccc(-c2cc(CO)cc(COc3ccccc3CC(=O)O)c2)c1F", "factor D (Homo sapiens)", "false (0)"),
    ("CC(C)OCc1cc(COc2ccccc2CC(=O)O)cc(-c2cccc([C@@H](C)N)c2F)c1", "factor D (Homo sapiens)", "false (0)"),
    ("COc1ccc(-c2cccc([C@@H](C)N)c2F)cc1COc1ccccc1CC(=O)O", "factor D (Homo sapiens)", "false (0)"),
    ("NCc1cc(F)cc(-c2cc(NC[C@H]3CCCO3)cc(C(=O)Nc3ccccc3CC(=O)O)c2)c1", "factor D (Homo sapiens)", "false (0)"),
    ("NCc1cccc(-c2cc(NCC(F)(F)F)cc(C(=O)Nc3ccccc3CC(=O)O)n2)c1", "factor D (Homo sapiens)", "true (1)"),
    ("CCc1ccc(CC(=O)O)c(OCc2cccc(-c3cccc(CN)c3)c2)c1", "factor D (Homo sapiens)", "true (1)"),
    ("C[C@H](N)c1cccc(-c2cc(COc3ccccc3CC(=O)O)cc(S(C)(=O)=O)c2)c1F", "factor D (Homo sapiens)", "false (0)"),
    ("NCc1ccnc(-c2cccc(COc3ccccc3CC(=O)O)c2)n1", "factor D (Homo sapiens)", "false (0)"),
    ("CCOC[C@@H](N)c1cccc(-c2cccc(COc3ccccc3CC(=O)O)c2)c1", "factor D (Homo sapiens)", "false (0)"),
]

---

target: factor D (Homo sapiens)
Construct: made in house; host or cells: E. coli
procedure_text: factor D inhibition assay of Biological Example 2
Assay type: biochemical
Lab note: compare IC50 with 1 µM, writing 1 (yes) if less and 0 (no) if equal or more.

# molecule, classification
data = [
    ("C[C@@H](N)c1cccc(-c2cc(COc3ccccc3CC(=O)O)cc(CC3CCOCC3)c2)c1F", "1 (yes)"),
    ("C[C@@H](N)c1cccc(-c2cccc(COc3ccccc3CC(=O)O)c2F)c1", "0 (no)"),
    ("CCc1ccc(NC(=O)c2cccc(-c3cc(F)cc(CN)c3)c2)c(CC(=O)O)c1", "1 (yes)"),
    ("Cc1ccc(COc2ccccc2CC(=O)O)cc1-c1cccc([C@@H](C)N)c1", "0 (no)"),
    ("NC(CO)c1cccc(-c2cccc(C(=O)Nc3ccccc3CC(=O)O)c2)c1 (racemic)", "0 (no)"),
    ("NCc1cccc(-c2cccc(COc3ccc(C(N)=O)cc3CC(=O)O)c2)c1", "0 (no)"),
    ("NCc1cccc(-c2cc(NC[C@@H]3CCCO3)cc(C(=O)Nc3ccccc3CC(=O)O)n2)c1", "1 (yes)"),
    ("NCc1cc(Cl)cc(-c2cccc(COc3ccccc3CC(=O)O)c2)c1", "1 (yes)"),
    ("NCc1cccc(-c2ccnc(C(=O)Nc3ccccc3CC(=O)O)c2)c1", "0 (no)"),
    ("Cc1cc(CN)cc(-c2cccc(COc3ccccc3CC(=O)O)c2)c1", "1 (yes)"),
    ("C[C@@H](N)c1cccc(-c2cc(COc3ccccc3CC(=O)O)cc(OCC3CCCCO3)c2)c1F (some centres unmarked)", "1 (yes)"),
]

Values compiled from patent US20160145247A1.
